inhibition at 10 µM reference
# tested-target: UniProt:Q07912
# Sequence (Q07912 whole entry): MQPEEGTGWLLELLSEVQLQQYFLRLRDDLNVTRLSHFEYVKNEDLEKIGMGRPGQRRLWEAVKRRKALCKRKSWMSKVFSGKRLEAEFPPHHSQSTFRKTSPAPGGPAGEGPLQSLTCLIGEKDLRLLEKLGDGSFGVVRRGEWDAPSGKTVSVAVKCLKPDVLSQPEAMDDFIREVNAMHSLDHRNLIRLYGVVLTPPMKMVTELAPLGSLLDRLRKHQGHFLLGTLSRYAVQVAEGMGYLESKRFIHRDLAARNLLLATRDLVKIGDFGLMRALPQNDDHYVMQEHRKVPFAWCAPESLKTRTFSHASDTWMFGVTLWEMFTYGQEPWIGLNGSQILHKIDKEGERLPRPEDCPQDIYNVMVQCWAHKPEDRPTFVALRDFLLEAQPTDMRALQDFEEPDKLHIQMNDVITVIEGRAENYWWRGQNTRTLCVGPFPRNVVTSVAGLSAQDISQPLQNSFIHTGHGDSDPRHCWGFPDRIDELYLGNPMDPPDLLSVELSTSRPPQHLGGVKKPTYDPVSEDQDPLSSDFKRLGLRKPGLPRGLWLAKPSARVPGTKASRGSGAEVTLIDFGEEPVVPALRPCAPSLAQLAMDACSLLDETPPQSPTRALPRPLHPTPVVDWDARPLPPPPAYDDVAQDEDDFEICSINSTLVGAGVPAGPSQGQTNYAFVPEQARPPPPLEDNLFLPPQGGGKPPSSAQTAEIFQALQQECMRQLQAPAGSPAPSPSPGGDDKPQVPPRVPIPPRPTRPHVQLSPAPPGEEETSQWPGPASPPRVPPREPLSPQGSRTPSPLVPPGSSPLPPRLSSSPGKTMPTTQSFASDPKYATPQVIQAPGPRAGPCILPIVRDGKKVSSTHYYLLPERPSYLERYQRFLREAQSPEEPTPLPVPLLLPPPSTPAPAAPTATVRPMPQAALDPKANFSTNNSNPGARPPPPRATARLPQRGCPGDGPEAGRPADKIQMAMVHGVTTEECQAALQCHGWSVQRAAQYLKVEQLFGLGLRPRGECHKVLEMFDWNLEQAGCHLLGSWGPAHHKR
# measurement-notes: ACK1 ELISA: phosphorylation of AKT-derived peptide
# Format: biochemical
# applied-conditions: 10 μM; Table 1, replicate values listed; read-out: % Inhibition at 10 μM (ELISA)

compound | tested-target | inhibition at 10 µM (%)
Cl.O=C(O)CCc1ccc(Nc2ncc(Cl)c(NCC3CCCO3)n2)cc1 (stereo not shown) | UniProt:Q07912 | 75
CCSc1ccccc1Nc1nc(Cl)ncc1C(=O)Nc1c(F)cccc1Cl | UniProt:Q07912 | 0
Cl.O=C(O)CCc1ccc(Nc2ncc(Br)c(NCC3CCCO3)n2)cc1 (stereo not shown) | UniProt:Q07912 | 74
Cl.O=C(O)CCCc1ccc(Nc2ncc(Cl)c(NC[C@@H]3CCCO3)n2)cc1 | UniProt:Q07912 | 52
Clc1cnc(Nc2ccc(CN3CCCCC3)cc2)nc1NCC1CCCO1 (stereo not shown) | UniProt:Q07912 | 77
Cl.O=C(O)CCc1ccc(Nc2ncc(Cl)c(NC[C@@H]3CCCO3)n2)cc1 | UniProt:Q07912 | 70
Cl.O=C(O)c1cc(Nc2ncc(C(=O)Nc3c(F)cccc3Cl)c(NCC3CCCO3)n2)ccc1O (stereo not shown) [YL8-009-2, hydrochloride] | UniProt:Q07912 | 44
CC(C)Sc1ccccc1Nc1nc(Cl)ncc1C(=O)Nc1c(F)cccc1Cl | UniProt:Q07912 | 0
O=C(Nc1c(F)cccc1Cl)c1cnc(Nc2ccc(O)cc2)nc1NCC1CCCO1 (stereo not shown) | UniProt:Q07912 | 85
CC(C)S(=O)(=O)c1ccccc1Nc1nc(Nc2ccc(C(N)=O)cc2)ncc1C(=O)Nc1c(F)cccc1Cl | UniProt:Q07912 | 51

// data source = patent US9850216B2
